Experiment: Parallel artificial membrane permeability assay (PAMPA)
Format: in vitro ADME
Conditions: PAMPA
Starred links: 1 amine or outer side, 2 acyl side, 3 side chain; linkers in the order of their positions; H or OH if unused. Positions of bridges follow the written chain, without caps; N, C: chain ends. Non-standard residues stand in square brackets, D forms with d. Residues, ends and D or L forms follow the SMILES beside them. *: point of attachment. Phenylacetyl(3,4,5-triOMe) = COc1cc(CC(=O)*)cc(OC)c1OC; X1 = O=C([C@H]1CC[C@@H](N[*:1])C1)[*:2]

>  <Molecule>
COc1cc(CC(=O)N[C@H]2CSSC[C@@H](C(N)=O)NC(=O)[C@H](Cc3c[nH]c4ccccc34)NC(=O)[C@H](CCCNC(=N)N)NC(=O)[C@H]3CC[C@H](C3)NC2=O)cc(OC)c1OC [Compound 14] ({Phenylacetyl(3,4,5-triOMe)}-C[X1]RWC-NH2; disulfide 1-5; C-terminus assumed)

>  <permeability (PAMPA)>
< 1%

$$$$
>  <Molecule>
COc1cc(CC(=O)N[C@H]2CSCc3ccc(cc3)-c3ccc(cc3)CSCCNC(=O)[C@H](Cc3c[nH]c4ccccc34)NC(=O)[C@H](CCCNC(=N)N)NC(=O)[C@H]3CC[C@H](C3)NC2=O)cc(OC)c1OC

>  <permeability (PAMPA)>
< 5%

$$$$
>  <Molecule>
COc1cc(CC(=O)N[C@H]2CSCc3ccc(cc3)CSCCNC(=O)[C@H](Cc3c[nH]c4ccccc34)NC(=O)[C@H](CCCNC(=N)N)NC(=O)[C@H]3CC[C@H](C3)NC2=O)cc(OC)c1OC

>  <permeability (PAMPA)>
< 5%

$$$$
>  <Molecule>
COc1cc(CC(=O)N[C@H]2CSCc3ccccc3CSCCNC(=O)[C@H](Cc3c[nH]c4ccccc34)NC(=O)[C@H](CCCNC(=N)N)NC(=O)[C@H]3CC[C@H](C3)NC2=O)cc(OC)c1OC

>  <permeability (PAMPA)>
16%

$$$$
>  <Molecule>
COc1cc(CC(=O)N[C@H]2CSCc3cccc(c3)CSCCNC(=O)[C@H](Cc3c[nH]c4ccccc34)NC(=O)[C@H](CCCNC(=N)N)NC(=O)[C@H]3CC[C@H](C3)NC2=O)cc(OC)c1OC

>  <permeability (PAMPA)>
11%

$$$$
